# System: SR
# assay.method.text: NCI tumour cell line growth inhibition, 48 h
The source made the active and inactive calls. Rule as the data show it: active = GI50 up to about 1.1 µM and inactive = higher.
Exercise: state measured GI50 for each of the molecules provided.

Returns the measured GI50 for the input molecule. Input: O=C1CSC(=S)N1/N=C/c1ccc(Cl)c([N+](=O)[O-])c1
22.5 µM (inactive)

Entry under review: Cc1ccc(S(=O)(=O)Nc2nc3ccccc3c(=O)n2C2CCCCC2)cc1 . Reported GI50?
> 100 µM (inactive)

GI50 for C=CCOc1ccc(C(=N/NC(=O)c2ccccc2)/N=N/c2ccc([N+](=O)[O-])cc2)cc1OC ?
> 100 µM (inactive)

Name the reported GI50 value associated with the molecule CC(=O)N1C(OCc2ccccc2)CCN1c1ccccc1 (configuration not stated)
> 10 µM (inactive)

Value lookup for GI50; key = COc1ccc2c(c1)N1CCc3cc(OC)c(OC)cc3C1C2 (configuration not stated)
34.2 µM (inactive)

What GI50 value was documented for this molecule, COc1cc(O)cc(O)c1C(=O)CC(Cl)(Cl)Cl ?
> 100 µM (inactive)

Please give the measured GI50 for this molecule: COc1cc(CCN)c(OC)c(OC)c1
50.8 µM (inactive)

Which measured GI50 value corresponds to COC(=O)C12C3C4C5C3(C#N)C1C5(C(=O)OC)C42C(=O)N(C(C)C)C(C)C (configuration not stated) ?
13.9 µM (inactive)

# query: GI50 of entry CNC(=O)OC(C)CN1c2ccccc2Sc2ccc(Cl)cc21 (configuration not stated)
> 10 µM (inactive)

What GI50 value was documented for this molecule, SC1CCCN(Cc2ccccc2)C1 (configuration not stated) ?
27.9 µM (inactive)

What value of GI50 has been recorded for this entry: CCC(=O)N1C(=O)C(CC)(CC)C(=O)N1C(=O)CC
> 100 µM (inactive)

Sample O=C(O)c1oc2cccc3c2c1CCC3 — what was its GI50?
> 100 µM (inactive)

###

For each of the compounds below, state its GI50.
# Test system: MDA-N
# assay.method.text: NCI tumour cell line growth inhibition, 48 h
Activity calls are given as the source filed them. Rule as the data show it: active = GI50 up to about 1.1 µM and inactive = higher.

Request: GI50, test system MDA-N, entry CCSc1n/c(=C\c2ccc(N(C)C)cc2)c2nnnn12
> 100 µM (inactive)

Query for MDA-N: what GI50 does the record show for Cc1ccc(O)c(-c2cscn2)c1 ?
40.2 µM (inactive)

Please tell me: GI50 of CC(=O)OCC1OC(Nc2ccc3nc(C)n(-c4cccc(C)c4)c(=O)c3c2)C(OC(C)=O)C(OC(C)=O)C1OC(C)=O (configuration not stated) , system MDA-N?
> 62.5 µM (inactive)

Query GI50 on MDA-N for O=C1Nc2ccc(Br)cc2/C1=N/Nc1ccccc1[N+](=O)[O-]
17 µM (inactive)

Item: O=C1C=CC(=O)C(N(CCO)CCO)=C1.O=C1C=CC2(O)OCCN(CCO)C2=C1 Test system: MDA-N Read-out: GI50 Value: ?
> 100 µM (inactive)

Enter reported GI50 observed with MDA-N for CCOC(=O)c1nc2ccc(C(F)(F)F)cc2[nH]c1=O
> 100 µM (inactive)

Request body: readout GI50, system MDA-N, query COc1ccc2c(C)cc(N/N=C(\C)C=O)nc2c1 . Return the value.
10.8 µM (inactive)

Record lookup: for MDA-N, what GI50 belongs to Cc1ccc(/N=N/c2c(C)c(C#N)c(=S)n(C3OC(CO)C(O)C(O)C3O)c2-c2ccccc2)cc1 (configuration not stated) ?
8.07 µM (inactive)

Observed GI50 on MDA-N for NS(=O)(=O)c1ccc(NC(=O)c2ccc3nc4ccccc4c(Nc4ccc(S(N)(=O)=O)cc4)c3c2)cc1 , please.
> 100 µM (inactive)

# get_value(readout= GI50, system= MDA-N) for O=C(O)C1CCCCC1c1c2ccc(=O)c(O)c-2oc2c(O)c(O)ccc12 (configuration not stated)
17.2 µM (inactive)

Given the entry CCNCCNc1c2ccccc2nc2ccccc12 , what GI50 was observed with MDA-N?
1.28 µM (inactive)

Write down the reported GI50 of CC(=O)O[C@H]1[C@H](OC(C)=O)[C@@H](CN=[N+]=[N-])OCO[C@@H]1CN=[N+]=[N-] , test system: MDA-N.
> 100 µM (inactive)
